kcat reference
Molecular target: Factor X (FX), P00742
Sequence (P00742 whole entry, looked up): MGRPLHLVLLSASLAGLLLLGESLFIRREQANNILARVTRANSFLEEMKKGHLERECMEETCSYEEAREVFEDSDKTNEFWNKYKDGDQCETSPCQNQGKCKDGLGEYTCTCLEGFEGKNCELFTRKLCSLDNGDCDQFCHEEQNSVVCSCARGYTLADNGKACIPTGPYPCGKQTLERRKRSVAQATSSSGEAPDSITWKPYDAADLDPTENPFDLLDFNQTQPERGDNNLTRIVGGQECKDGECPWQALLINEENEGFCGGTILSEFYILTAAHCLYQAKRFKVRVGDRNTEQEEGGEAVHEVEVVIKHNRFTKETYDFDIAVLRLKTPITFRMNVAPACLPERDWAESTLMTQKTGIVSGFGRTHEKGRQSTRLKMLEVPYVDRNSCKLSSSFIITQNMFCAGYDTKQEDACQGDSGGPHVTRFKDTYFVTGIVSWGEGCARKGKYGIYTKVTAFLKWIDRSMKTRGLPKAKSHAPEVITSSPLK
The answer is to be given in s⁻¹; state only the numeric part.

Protein	kcat [s⁻¹]
FIXa-D85N/K228N/R318Y/R338E/R403E/E410N (protein) chain 1: YNSGKLEEFVQGNLERECMEEKCSFEEAREVFENTERTTEFWKQYVDGDQCESNPCLNGGSCKDDINSYECWCPFGFEGKNCELNVTCNIKNGRCEQFCKNSADNKVVCSCTEGYRLAENQKSCEPAVPFPCGRVSVSQTSKLTR chain 2: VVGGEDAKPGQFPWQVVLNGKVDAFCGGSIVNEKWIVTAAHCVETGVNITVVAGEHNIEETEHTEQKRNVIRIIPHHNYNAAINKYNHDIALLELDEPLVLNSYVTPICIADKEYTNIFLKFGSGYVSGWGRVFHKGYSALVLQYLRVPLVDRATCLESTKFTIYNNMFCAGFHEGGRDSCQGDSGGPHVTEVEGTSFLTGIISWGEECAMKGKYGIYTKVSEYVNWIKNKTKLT	6

If you can, please state the reported kcat value of FIXa-K247N/N249S/R318Y/R338E/R403E/E410N (protein) chain 1: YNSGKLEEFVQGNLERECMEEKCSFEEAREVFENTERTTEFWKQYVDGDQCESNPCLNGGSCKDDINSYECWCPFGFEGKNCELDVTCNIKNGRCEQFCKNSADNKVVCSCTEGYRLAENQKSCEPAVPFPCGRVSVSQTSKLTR chain 2: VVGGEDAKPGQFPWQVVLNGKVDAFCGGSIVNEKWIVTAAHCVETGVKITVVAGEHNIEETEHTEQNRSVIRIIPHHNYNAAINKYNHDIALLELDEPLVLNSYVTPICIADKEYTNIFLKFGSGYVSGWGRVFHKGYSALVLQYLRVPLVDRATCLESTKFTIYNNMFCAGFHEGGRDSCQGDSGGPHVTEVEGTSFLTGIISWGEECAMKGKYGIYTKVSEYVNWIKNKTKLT .
5.8
